- systemName: PqsR (Pseudomonas aeruginosa, UniProt Q9I4X0)
- Sequence (Q9I4X0 whole entry): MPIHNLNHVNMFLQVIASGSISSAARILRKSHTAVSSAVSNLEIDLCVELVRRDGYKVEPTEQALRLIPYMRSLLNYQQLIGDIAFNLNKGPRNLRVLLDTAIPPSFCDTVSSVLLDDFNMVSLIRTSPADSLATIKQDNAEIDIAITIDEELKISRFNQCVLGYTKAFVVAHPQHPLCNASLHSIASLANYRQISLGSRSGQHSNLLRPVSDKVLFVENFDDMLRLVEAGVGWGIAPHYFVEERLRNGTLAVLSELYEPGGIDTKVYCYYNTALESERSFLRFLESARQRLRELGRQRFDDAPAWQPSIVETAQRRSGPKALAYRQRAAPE
- assayProcedure: 10 μM spot test in the PAO1-L mCTX:PpqsA-lux bioreporter
- Format: cell-based, Pseudomonas aeruginosa PAO1-L
- setupConditions: 10 μM ligand concentration
recordedMetric: activity when screened at 10 μM (in words)

{"compound": "NC(N)=Nc1nc(Cn2cnc3ccc(Cl)cc3c2=O)cs1", "systemName": "PqsR (Pseudomonas aeruginosa, UniProt Q9I4X0)", "testValue": "inactive"}
{"compound": "O=c1c2cc(Cl)ccc2ncn1Cc1csc(-c2ccc([N+](=O)[O-])cc2)n1", "systemName": "PqsR (Pseudomonas aeruginosa, UniProt Q9I4X0)", "testValue": "inactive"}
{"compound": "CCCCCc1nc(Cn2cnc3cc(Cl)ccc3c2=O)cs1", "systemName": "PqsR (Pseudomonas aeruginosa, UniProt Q9I4X0)", "testValue": "inactive"}

These measurements were taken from paper PMC7684530.
